This collection of values is drawn from ChEMBL document CHEMBL4819091.

Each entry below carries its reported IC50.
- Test system: A549
- testSummary: Cytotoxicity against human A549 cells assessed as reduction in cell viability incubated for 72 hrs by MTT assay
- Format: functional, cell-based
- condition: A549, 72 h

Some entries whose results are on file:
O=C(O)COc1ccc(CC(=O)O)cc1-c1cc(-c2ccc(Cl)cc2)n(CCc2ccccc2)n1 :: > 100 µM
COC(=O)c1ccc(-n2cc(CCCOS(=O)(=O)c3ccc(C)cc3)nn2)cc1 :: > 100 µM

Shifting focus to the compound that follows.
Query IC50 on A549 for O=C(O)CN(Cc1ccc(Cl)cc1)C(=O)c1cnc(N2CCC[C@H]2COc2ccc(Cl)cc2)nc1CCc1ccccc1 45.6 µM

====

- systemTested: 26S proteasome non-ATPase regulatory subunit 10 (Homo sapiens) (UniProt O75832)
- Sequence (O75832 whole entry): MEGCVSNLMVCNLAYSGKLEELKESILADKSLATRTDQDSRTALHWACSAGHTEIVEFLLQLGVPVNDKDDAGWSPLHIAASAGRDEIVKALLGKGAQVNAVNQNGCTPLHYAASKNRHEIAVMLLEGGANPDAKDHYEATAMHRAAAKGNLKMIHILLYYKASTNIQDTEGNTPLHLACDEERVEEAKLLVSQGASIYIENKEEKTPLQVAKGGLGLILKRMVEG
- testSummary: Binding affinity to recombinant human His-tagged gankyrin expressed in Escherichia coli assessed as change in melting temperature at 300 uM by SYPRO orange dye based thermal shift assay
testReadout: ΔTm (°C)
Provide the reading as a plain figure in °C.

CS(=O)(=O)Cc1cccc(C(=O)NS(=O)(=O)c2ccc(S(C)(=O)=O)cc2)c1 :: 0.29
O=C(O)CN(Cc1ccc(Cl)cc1)C(=O)c1cnc(N2CCC[C@H]2COc2ccc(Cl)cc2)nc1CCc1ccccc1 :: 7.92
COC(=O)c1ccc(-n2cc(CCCOS(=O)(=O)c3ccc(C)cc3)nn2)cc1 :: 0.5
COc1cccc2c1O[C@@](C)(CCC(=O)O)[C@@H]1CC[C@@H](CCCN)O[C@@H]21 :: 0.17

Kindly consider the entry below.
I have this molecule here, O=C(O)COc1ccc(CC(=O)O)cc1-c1cc(-c2ccc(Cl)cc2)n(CCc2ccccc2)n1 , and I need its recorded ΔTm. 1.94
